From: PubChem BioAssay (NCI)

Assay: NCI Yeast Anticancer Drug Screen. Data for the sgs1 mgt1 strain (AID 161);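 further: 0% = growth of cultures given vehicle only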
Conditions: S. cerevisiae sgs1 mgt1 strain, at 50.0 µM, active compounds read high
Method: Growth inhibition of yeast strains with defined genetic alterations is measured as a screen for potential anti-cancer activity. Selected strains with alterations in DNA damage repair or cell cycle control were exposed to compounds and growth inhibition was measured relative to vehicle treated controls. The strain used in this assay is sgs1 mgt1
Compounds without any hit were thinned out: in the full panel of roughly 79,000, 15% have a hit. Where a SMILES comes first, the peptide text is derived from it. The star is where a group is joined. Boc = CC(C)(C)OC(=O)*; OcHex = C1CCC(O*)CC1
MEASURE_NAME: growth inhibition (%)
A number alone suffices; assume %.

Exercise: Could you share which growth inhibition value was measured for O=C1CCCc2c1cc1c3c(cccc23)CC1 ?
Solution: 0.7

Exercise: Would you kindly share the measured growth inhibition for NC1Nc2ccccc2NC1=O (configuration not stated) ?
Solution: 3.4

Exercise: Which growth inhibition value belongs to CC(Cc1ccccc1)NC(=O)C1CC2CCCCN2C1C (configuration not stated) ?
Solution: 57.2

Exercise: Which growth inhibition is reported for this compound? N#Cc1cn(Cc2ccccc2)c2ccccc2c1=O
Solution: 3.95

Exercise: Bench note: what growth inhibition did CC(=O)[CH-]C(=O)c1ccccc1.CC(=O)[CH-]C(=O)c1ccccc1.CC[C@H](/C=C/C(C)[C@H]1CCC2[C@@H]3CC=C4C[C@@H]([O-])CC[C@]4(C)C3CC[C@@]21C)C(C)C.CC[O-].[Ti+4] (some centres not stated) show?
Solution: -2.45

Exercise: Tell me the measured growth inhibition of CCOc1ccc(/C(Cl)=C(\C=O)c2ccc(OC)c(OC)c2)cc1OCC , please.
Solution: 3.25

Exercise: Request the reported growth inhibition associated with C[N+](C)(C)C(C1=CCCC1=O)c1ccccc1 (configuration not stated)
Solution: 3.7

Exercise: Name the reported growth inhibition value associated with the compound CC(C)CC(NC(=O)OC(C)(C)C)C(=O)NC(CCC(=O)OC1CCCCC1)C(N)=O (stereo not drawn) (Boc-Leu-Glu(OcHex)-NH2; configuration not given here)
Solution: -8

Exercise: Recorded growth inhibition of CN(CC(N)=O)C(=O)c1cnc2ccccc2c1 , please.
Solution: -1.05

Exercise: Consider the compound Fc1ccc(C2SCc3nc4ccccc4n32)cc1F (configuration not stated) and give its measured growth inhibition.
Solution: 24.3

Exercise: Entry C[N+](C)(C)CC(=O)c1ccc[nH]1 has what growth inhibition?
Solution: 14.9

Exercise: Form field: reported growth inhibition of COc1ccc(S(=O)(=O)N/N=C/C(=O)OCOC(=O)C(C)(C)C)cc1
Solution: -5.1

Exercise: Dear colleague, I am looking for the recorded growth inhibition of the following compound: O=[N+]([O-])c1ccc(N/N=C(/c2ccc3ccccc3c2)c2ccccc2F)c([N+](=O)[O-])c1
Solution: -12.2

Exercise: Which measured growth inhibition value corresponds to O=C1c2ccccc2CC12Cc1ccc3c(c1C2=O)CCCC3 (configuration not stated) ?
Solution: -3.85

Exercise: Look up growth inhibition: Cn1ccnc1CCc1c(Cl)cccc1Cl
Solution: -47.1

Exercise: For the compound shown here, O=S(=O)(O)c1cc(S(=O)(=O)O)c2c(N=Nc3cccc4ccccc34)c(O)ccc2c1 , give the reported growth inhibition.
Solution: -35.5

Exercise: For the compound COc1c(C)c(OC)c(C(=O)CC(C)C)c(OC)c1C , what growth inhibition is on record?
Solution: 35.2

Exercise: Fill blank: measured growth inhibition of the compound CCN(CC)C(=O)Sc1ccc(SC(=O)N(CC)CC)cc1 is ____.
Solution: -2.05

Exercise: Which growth inhibition value is on record for CCC(CC)C(=O)OCCOCCOCCOC(=O)C(CC)CC ?
Solution: -2.15

Exercise: Item under review: Cc1ccc(S(=O)(=O)ON2C(=O)c3cccc4cc([N+](=O)[O-])cc(c34)C2=O)cc1 . Reported growth inhibition?
Solution: 39.4

Exercise: Query (compound): S=C1SC(=Nc2ccccc2)C(=Nc2ccccc2)N1c1ccccc1 ; field requested: growth inhibition
Solution: 6.7

Exercise: Item under review: Oc1cc2c(cc1O)-c1[nH]ncc1CC2 . Reported growth inhibition?
Solution: 3.35

Exercise: Any idea what growth inhibition was measured for CCCCCCCOC(=O)COc1ccc(Cl)cc1Cl ?
Solution: 10.8

Exercise: Look at this compound and give its reported growth inhibition. COc1ccc(N=Cc2ccc(OC(=O)c3ccccc3)c(OC)c2)cc1
Solution: 0.55

Exercise: Using the record for O=C(O)c1ccc(Cl)c2ncccc12 , report its growth inhibition.
Solution: -1.3

Exercise: For the compound shown here, CCOC(=O)c1c(Cl)c(CC)c(Cl)n2c1nc1ccccc12 , give the reported growth inhibition.
Solution: 14.8

Exercise: Recorded growth inhibition for CCCCCCC(C)NCC(=O)Nc1ccccc1C (configuration not stated) , please?
Solution: 25.6

Exercise: Reported growth inhibition for CCOC(=O)CNC=O : what is it?
Solution: -2.7

Exercise: For NC(=O)COC(=O)c1c(Cl)nc2sccn12 , what is its reported growth inhibition?
Solution: -13.9

Exercise: So what does the record say about growth inhibition for COc1ccc(/C=N/NC(=O)O)cc1 ?
Solution: -24

Exercise: Item CCOC(=O)CN=c1nc(SC)sc2c(C(=O)OCC)nc(Sc3ccccc3)n12 has what recorded growth inhibition?
Solution: 1.55

Exercise: Any idea what its growth inhibition is? The compound is N#Cc1sc2nc3c(c(-c4ccccc4)c2c1N)CCCC3
Solution: -0.95

Exercise: Suppose we examine the compound O=C(Nc1ccc([N+](=O)[O-])cc1)N(c1ccccc1)c1cc(N2CCOCC2)ccn1 ; what growth inhibition value has been reported?
Solution: 9.1

Exercise: Suppose we examine the compound CNC(=S)SC(=S)NC ; what growth inhibition value has been reported?
Solution: -4.55

Exercise: Look at this compound and give its reported growth inhibition. CC(C)CCCC(C)C1CCC2C3CC=C4CC(OC(=O)C(Cl)(Cl)Cl)CCC4(C)C3CCC12C (configuration not stated)
Solution: -0.7

Exercise: Given the entry CN(C)C(=O)c1cccc(C2CCCCC2)c1O , report its measured growth inhibition.
Solution: 14.6

Exercise: For the compound CC(=O)Oc1ccc(I)cc1C(=O)O , what growth inhibition is on record?
Solution: 1.25

Exercise: Tell me the measured growth inhibition of CCOc1nc2c(c(=O)n(C)c(=O)n2C)n1C , please.
Solution: -6.25

Exercise: // query growth inhibition value for entry O=C(Cc1ccccc1)NS(=O)(=O)c1ccccc1
Solution: -12.3

Exercise: Consider the compound CC(C)C1CCC2(C)C(CCC3C4(C)CCCC32OC4)C1 (configuration not stated) and give its measured growth inhibition.
Solution: 0.75

Exercise: Return reported growth inhibition; argument: CCOC(=O)CCCOc1ccccc1
Solution: -9.55

Exercise: Look at this compound and give its reported growth inhibition. O=C1/C(=C/c2ccc(Br)cc2)CCC/C1=C\c1ccc(Br)cc1
Solution: 0.25

Exercise: State the recorded growth inhibition for this entry: CCCC1OCC(CC)C(CCC)O1 (configuration not stated)
Solution: 6.25

Exercise: Using the record for Oc1c(Cl)cc(Cl)cc1/C=N/c1nc(-c2ccc(Cl)cc2)cs1 , report its growth inhibition.
Solution: 61.3

Exercise: Can you share its growth inhibition? I mean this compound: CN1NC2=NCCN=C3NN(C)C(=NCCN=C1S2)S3
Solution: -43.3

Exercise: Which value of growth inhibition has been reported for CCOC(=O)/C=C\C(=O)OCC in the records?
Solution: 9.35

Exercise: Name the recorded growth inhibition for Cc1ccc(/C=C/C(=O)c2sc(-n3nc(-c4ccccc4)cc3-c3ccccc3)nc2C)cc1 .
Solution: -29.9
